Tested on: U-87 MG
protocol.description: Antiangiogenic activity in human U87cells after 24 hrs by MTT assay
Format: functional, cell-based, U-87MG ATCC
measurement.label: IC50 (µM)
Answers are plain numbers, in µM.

- CC(=O)Oc1ccc(-c2cnc3cc(C)c(C)cc3n2)cc1O: 42.3

IC50 of Cc1cc2ncc(-c3ccc(OCc4ccccc4)c(O)c3)nc2cc1C , assay on U-87 MG, is 15.9

###

Please provide measured pIC50 for the entries that follow.
protocol.description: Inhibition of phosphoinositide 3-Kinase (unknown origin)
Design: species or system Homo sapiens
Numbers only, as −log10 of the molar value.

Solved entries (count: 3):
• O=S(=O)(c1ccc(Br)cc1)c1nc2ccccc2nc1N1CCC(O)CC1 = 7.40
• O=C(c1ccccc1)N1CCN(c2nc3ccccc3nc2S(=O)(=O)c2ccccc2)CC1 = 7.40
• NC(=O)C1CCN(c2nc3ccccc3nc2S(=O)(=O)c2ccc(Br)cc2)CC1 = 7.40

Consider the additional molecule presented here.
Per the records, this molecule ( O=S(=O)(c1ccccc1)c1nc2ccccc2nc1N1CCOCC1 ) has pIC50 equal to 7.40
